Species on record: Homo sapiens
Experiment: Liver toxicity in human assessed as induction of drug-induced liver injury by measuring verified drug-induced liver injury concern status
observed property: DILI_Concern

> print(dat)
                                   molecule    recorded.measurement
1  CC(S)C(=O)NCC(=O)O (stereo not given) [TIOPRONIN]  Ambiguous-Dili-Concern
2  CC(C)[C@H]1CC[C@H](C(=O)N[C@H](Cc2ccccc2)C(=O)O)CC1 [NATEGLINIDE]  Ambiguous-Dili-Concern

###

Species: Homo sapiens
Assay: Liver toxicity in human assessed as induction of drug-induced liver injury by measuring severity class index
observed property: DILI_severity_class

Consider the following illustrative entries.
> print(dat)
                                   compound  recorded.measurement
1  C[C@H](Cn1cnc2c(N)ncnc21)OCP(=O)(O)O [TENOFOVIR ANHYDROUS]                     3
2  CCCCCc1cc(O)c2c(c1)OC(C)(C)[C@@H]1CCC(C)=C[C@@H]21                     3
3             Nc1nnc(-c2cccc(Cl)c2Cl)c(N)n1                     7
4                  C=CCOc1ccc(CC(=O)O)cc1Cl                     8

Can you look up the measured DILI_severity_class of CCCC(C)(COC(N)=O)COC(N)=O [MEPROBAMATE] for me?
0

###

Species on record: Homo sapiens
Assay: Liver toxicity in human assessed as induction of drug-induced liver injury by measuring verified drug-induced liver injury concern status
observed property: DILI_Concern

Consider the following illustrative entries.
> print(dat)
                                   molecule  observed.property    recorded.measurement
1  CCCc1nc(C(C)(C)O)c(C(=O)OCc2oc(=O)oc2C)n1Cc1ccc(-c2ccccc2-c2nnn[nH]2)cc1 [OLMESARTAN MEDOXOMIL]       DILI_Concern  Ambiguous-Dili-Concern
2  CC(C)CC(N(C)C)C1(c2ccc(Cl)cc2)CCC1 (centres undefined) [SIBUTRAMINE]       DILI_Concern       Less-Dili-Concern
3  CC(O)(CS(=O)(=O)c1ccc(F)cc1)C(=O)Nc1ccc(C#N)c(C(F)(F)F)c1 (centres undefined) [BICALUTAMIDE]       DILI_Concern       Most-Dili-Concern
4  O=P(O)(O)C(O)(Cc1cccnc1)P(=O)(O)O [RISEDRONIC ACID]       DILI_Concern  Ambiguous-Dili-Concern

Can you look up the measured DILI_Concern of CN1CCN(C2=Nc3ccccc3Oc3ccc(Cl)cc32)CC1 [LOXAPINE] for me?
Ambiguous-Dili-Concern

Here is the next molecule: Nc1ccn([C@@H]2O[C@H](CO)[C@@H](O)[C@@H]2O)c(=O)n1 [CYTARABINE]
Most-Dili-Concern

Here is the next molecule: CCN(CC)CCNC(=O)c1c(C)[nH]c(/C=C2\C(=O)Nc3ccc(F)cc32)c1C [SUNITINIB]
Most-Dili-Concern

Here is the next molecule: CCOc1ccccc1OCCN[C@H](C)Cc1ccc(OC)c(S(N)(=O)=O)c1 [TAMSULOSIN]
Less-Dili-Concern

Here is the next molecule: CN[C@@H](C)[C@@H](O)c1ccccc1 [PSEUDOEPHEDRINE]
No-Dili-Concern

Here is the next molecule: CC(C)C(=O)Nc1ccc([N+](=O)[O-])c(C(F)(F)F)c1 [FLUTAMIDE]
Most-Dili-Concern

Here is the next molecule: OC(CCN1CCCCC1)(c1ccccc1)C1CCCCC1 (centres undefined) [TRIHEXYPHENIDYL]
No-Dili-Concern

Here is the next molecule: Sc1ncnc2nc[nH]c12 [MERCAPTOPURINE ANHYDROUS]
Most-Dili-Concern

Here is the next molecule: CN1C(=O)CC(C)(c2ccccc2)C1=O (centres undefined) [METHSUXIMIDE]
No-Dili-Concern

Here is the next molecule: CC(COc1ccccc1)N(CCCl)Cc1ccccc1 (centres undefined) [PHENOXYBENZAMINE]
No-Dili-Concern

Here is the next molecule: C=C1/C(=C\C=C2/CCC[C@]3(C)[C@@H]([C@H](C)/C=C/[C@H](C)C(C)C)CC[C@@H]23)C[C@@H](O)C[C@@H]1O [DOXERCALCIFEROL]
Ambiguous-Dili-Concern

Here is the next molecule: CC(C)=CCN1CC[C@]2(C)c3cc(O)ccc3C[C@H]1[C@H]2C [(+)-PENTAZOCINE]
No-Dili-Concern

Here is the next molecule: COc1ccccc1OCC(O)CO (centres undefined) [GUAIFENESIN]
No-Dili-Concern

Here is the next molecule: CCC(C)C1(CC)C(=O)NC(=O)NC1=O (centres undefined) [BUTABARBITAL]
Ambiguous-Dili-Concern

Here is the next molecule: O=C(O)CCc1nc(-c2ccccc2)c(-c2ccccc2)o1 [OXAPROZIN]
Less-Dili-Concern

###

Catalogue of DILI_severity_class readings, one per entry.
Species: Homo sapiens
Assay: Liver toxicity in human assessed as induction of drug-induced liver injury by measuring severity class index
Please give only the number in your answer, with no unit.

Consider the following illustrative entries.
> print(dat)
                                   compound    observed.property  recorded.measurement
1      O=C(O)COc1ccc(C(=O)c2cccs2)c(Cl)c1Cl  DILI_severity_class                     8
2     NS(=O)(=O)Cc1noc2ccccc12 [ZONISAMIDE]  DILI_severity_class                     2
3  CC(=O)NC[C@H]1CN(c2ccc(N3CCOCC3)c(F)c2)C(=O)O1 [LINEZOLID]  DILI_severity_class                     3
4              N[C@@H](CS)C(=O)O [CYSTEINE]  DILI_severity_class                     3

// next item, DILI_severity_class requested
Can you look up the measured DILI_severity_class of CC(=O)Oc1cc2c(s1)CCN(C(C(=O)C1CC1)c1ccccc1F)C2.Cl (stereo not given) [PRASUGREL HYDROCHLORIDE] for me?
0

###

Species: Homo sapiens
Assay: Liver toxicity in human assessed as induction of drug-induced liver injury by measuring verified drug-induced liver injury concern status
observed property: DILI_Concern

Consider the following illustrative entries.
molecule	DILI_Concern
CN1C(=O)OC(C)(C)C1=O	Ambiguous-Dili-Concern
NCCS	Ambiguous-Dili-Concern
CCN1CC(CCN2CCOCC2)C(c2ccccc2)(c2ccccc2)C1=O (centres undefined)	No-Dili-Concern
CCCCCCCCNC(C)C(O)c1ccc(SC(C)C)cc1 (centres undefined)	Most-Dili-Concern
CC(C)(C)NC(=O)[C@H]1CC[C@H]2[C@@H]3CC[C@H]4NC(=O)C=C[C@]4(C)[C@H]3CC[C@]12C [FINASTERIDE]	Less-Dili-Concern
CSCC[C@H](NC(=O)[C@H](Cc1ccc(OS(=O)(=O)O)cc1)NC(=O)[C@@H](N)CC(=O)O)C(=O)NCC(=O)N[C@@H](Cc1c[nH]c2ccccc12)C(=O)N[C@@H](CCSC)C(=O)N[C@@H](CC(=O)O)C(=O)N[C@@H](Cc1ccccc1)C(N)=O [SINCALIDE]	No-Dili-Concern
C[N+]1(CC2CC2)CC[C@]23c4c5ccc(O)c4O[C@H]2C(=O)CC[C@@]3(O)[C@H]1C5.[Br-] (some centres undefined) [METHYLNALTREXONE BROMIDE]	No-Dili-Concern
N[C@@H](Cc1ccc(N(CCCl)CCCl)cc1)C(=O)O	Less-Dili-Concern

// next item, DILI_Concern requested
Can you look up the measured DILI_Concern of CC1(C)S[C@@H]2[C@H](NC(=O)COc3ccccc3)C(=O)N2[C@H]1C(=O)O for me?
No-Dili-Concern

###

Species on record: Homo sapiens
Experiment: Liver toxicity in human assessed as induction of drug-induced liver injury by measuring severity class index
observed property: DILI_severity_class
Please give only the number in your answer, with no unit.

Can you look up the measured DILI_severity_class of Nc1ccn([C@@H]2CS[C@H](CO)O2)c(=O)n1 for me?
3

Here is the next molecule: CNNCc1ccc(C(=O)NC(C)C)cc1
3

Here is the next molecule: CC1(C)S[C@@H]2[C@H](NC(=O)Cc3ccccc3)C(=O)N2[C@H]1C(=O)O
3

Here is the next molecule: CC(C)NCC(O)COc1ccc(COCCOC(C)C)cc1 (stereo not given)
3

Here is the next molecule: CN[C@@H](C)[C@@H](O)c1ccccc1
0

###

Species: Homo sapiens
Test: Liver toxicity in human assessed as induction of drug-induced liver injury by measuring verified drug-induced liver injury concern status
observed property: DILI_Concern

Consider the following illustrative entries.
compound	recorded measurement
COC(=O)C1=C(C)NC(C)=C(C(=O)OCCN(C)Cc2ccccc2)C1c1cccc([N+](=O)[O-])c1 (stereo not drawn) [NICARDIPINE]	Ambiguous-Dili-Concern
Cc1cc(Br)c(O)c2ncccc12 [TILBROQUINOL]	Most-Dili-Concern
O=C(O)c1cc(-c2ccc(F)cc2F)ccc1O [DIFLUNISAL]	Most-Dili-Concern
CC(COc1ccccc1)NC(C)C(O)c1ccc(O)cc1 (stereo not drawn) [ISOXSUPRINE]	No-Dili-Concern
CO[C@H]1C[C@@H]2CC[C@@H](C)[C@@](O)(O2)C(=O)C(=O)N2CCCC[C@H]2C(=O)O[C@H]([C@H](C)C[C@@H]2CC[C@@H](OCCO)[C@H](OC)C2)CC(=O)[C@H](C)/C=C(\C)[C@@H](O)[C@@H](OC)C(=O)[C@H](C)C[C@H](C)/C=C/C=C/C=C/1C [EVEROLIMUS]	Ambiguous-Dili-Concern
Cc1cccc(Nc2ccccc2C(=O)O)c1C [MEFENAMIC ACID]	Most-Dili-Concern

// next item, DILI_Concern requested
Can you look up the measured DILI_Concern of CC[C@@H](c1cccc(O)c1)[C@@H](C)CN(C)C [TAPENTADOL] for me?
No-Dili-Concern
